The values you see were collected from patent US20200079833A1.

molecular target: GLP-1 receptor (GLP-1R) (human, UniProt P43220 24-463); experiment: cell-based or functional assay
Starred links: 1 amine or outer side, 2 acyl side, 3 side chain; linkers in the order of their positions; H or OH if unused. Non-standard residues stand in square brackets, D forms with d. Groups on a side chain read outwards from the residue. Primed or numbered codes have the meaning given here. No end group written: not given here. *: point of attachment. Dodecanoyl(12-OPh(4-COOH)) = O=C(O)c1ccc(OCCCCCCCCCCCC(=O)*)cc1; γGlu = O=C(O)[C@H](CCC(=O)[*:2])N[*:1]; Stearoyl = CCCCCCCCCCCCCCCCCC(=O)*; αMeF = C[C@](N)(Cc1ccccc1)C(=O)O; αMeK = C[C@](N)(CCCCN)C(=O)O; Lauroyl = CCCCCCCCCCCC(=O)*; αMeS = C[C@](N)(CO)C(=O)O; PEG2′ = not defined here; Aib = CC(C)(N)C(=O)O
Consider the reported cAMP Primary assay EC50 GLP-1R n1 of an entry and match it to a band in low: < 0.02 nM; middle: ≥ 0.02 nM and < 0.03 nM; high: ≥ 0.03 nM

Past entries and their recorded results:
H[Aib]EGS[αMeF]TSDV[αMeS]S[αMeF]LEGEAAK([PEG2′-PEG2′-Lauroyl])E[αMeF]IA[αMeF]VV[αMeK]GG-NH2 [SEQ ID NO 135] ... low
H[Aib]EGS[αMeF]TSDV[αMeS]K([PEG2′-PEG2′-γGlu-Stearoyl])[αMeF]LEGEAA[αMeK]E[αMeF]IA[αMeF]VV[αMeK]GG-NH2 [SEQ ID NO 117] ... middle

input: For H[Aib]EGS[αMeF]TSDV[αMeS]SK([PEG2′-PEG2′-γGlu-Stearoyl])LEGEAA[αMeK]E[αMeF]IA[αMeF]VV[αMeK]GG-NH2 [SEQ ID NO 116] , which cAMP Primary assay EC50 GLP-1R n1 bin applies?
output: low

input: Could you place H[Aib]EGS[αMeF]TSDV[αMeS]S[αMeF]LEGEAAK([PEG2′-PEG2′-PEG2′-Dodecanoyl(12-OPh(4-COOH))])E[αMeF]IA[αMeF]VV[αMeK]GG-NH2 [SEQ ID NO 145] in its proper category? Many thanks.
output: middle

input: Form field 'band' for H[Aib]EGS[αMeF]TSDV[αMeS]S[αMeF]LEGEAA[αMeK]E[αMeF]IA[αMeF]K([PEG2′-PEG2′-γGlu-Stearoyl])V[αMeK]GG-NH2 [SEQ ID NO 103]
output: low

input: Category of H[Aib]EGS[αMeF]TSK([PEG2′-PEG2′-γGlu-Stearoyl])V[αMeS]S[αMeF]LEGEAA[αMeK]E[αMeF]IA[αMeF]VV[αMeK]GG-NH2 [SEQ ID NO 120] :
output: high

input: Each binder maps to one class by cAMP Primary assay EC50 GLP-1R n1. Which class for H[Aib]EGS[αMeF]TSDV[αMeS]S[αMeF]LEGEAAK([PEG2′-PEG2′-Dodecanoyl(12-OPh(4-COOH))])E[αMeF]IA[αMeF]VV[αMeK]GG-NH2 [SEQ ID NO 144] ?
output: low

input: Hello team, could you let me know which band the following binder falls into: H[Aib]EGS[αMeF]TSDV[αMeS]S[αMeF]LEGEAA[αMeK]E[αMeF]IA[αMeF]VK([PEG2′-PEG2′-γGlu-Stearoyl])[αMeK]GG-NH2 [SEQ ID NO 102]
output: middle

input: Bin this entry: H[Aib]EGS[αMeF]TSDK([PEG2′-PEG2′-γGlu-Stearoyl])[αMeS]S[αMeF]LEGEAA[αMeK]E[αMeF]IA[αMeF]VV[αMeK]GG-NH2 [SEQ ID NO 119]
output: low

input: Kindly identify the class of H[Aib]EGS[αMeF]TSDV[αMeS]S[αMeF]LEGEAA[αMeK]E[αMeF]K([PEG2′-PEG2′-γGlu-Stearoyl])A[αMeF]VV[αMeK]GG-NH2 [SEQ ID NO 106] .
output: high

input: Which category fits this record: H[Aib]EGS[αMeF]TSDV[αMeS]S[αMeF]LEGEAA[αMeK]E[αMeF]IK([PEG2′-PEG2′-γGlu-Stearoyl])[αMeF]VV[αMeK]GG-NH2 [SEQ ID NO 105]
output: middle
